tested on: A/Hong Kong/8/68 (H3N2); conditions: ratio of CC50 to EC50
measurement kind: SI50 HK

>>> result("O=C(Nc1ccn([C@@H]2O[C@H](CO)[C@@H](O)C2(F)F)c(=O)n1)c1ccc(-c2ccccc2)cn1")
"> 6.0"
>>> result("O=C(Nc1ccn([C@@H]2O[C@H](CO)[C@@H](O)C2(F)F)c(=O)n1)c1ccc(F)cn1")
"> 49.9"
>>> result("Cc1cccnc1C(=O)Nc1ccn([C@@H]2O[C@H](CO)[C@@H](O)C2(F)F)c(=O)n1")
"> 11.2"
>>> result("O=C(Nc1ccn([C@@H]2O[C@H](CO)[C@@H](O)C2(F)F)c(=O)n1)c1cccnc1")
"> 48.4"
>>> result("O=C(Nc1ccn([C@@H]2O[C@H](CO)[C@@H](O)C2(F)F)c(=O)n1)c1ccc(F)nc1")
"> 116.6"
>>> result("O=C(Nc1ccn([C@@H]2O[C@H](CO)[C@@H](O)C2(F)F)c(=O)n1)c1ccc(Cl)nc1")
"> 31.5"
>>> result("Nc1ccc(C(=O)Nc2ccn([C@@H]3O[C@H](CO)[C@@H](O)C3(F)F)c(=O)n2)nc1")
"> 59.5"

---

system: B/Lee/40; assay: CPE reduction antiviral assay in Lee-infected MDCK cells (MTT); assay type: cell-based, influenza B virus; conditions: Influenza B virus, MDCK, 72 h, MDCK, MOI 0.001, day 3; viability of infected cells to 50%; read-out: EC50 Lee
Each entry falls into one class according to its EC50; the ranges are class A: < 3 µM; class B: ≥ 3 µM and < 10 µM; class C: ≥ 10 µM

>>> qualitative_label("O=C(Nc1ccn([C@@H]2O[C@H](CO)[C@@H](O)C2(F)F)c(=O)n1)c1ccc(F)nc1")
"class A"
>>> qualitative_label("Nc1ccc(C(=O)Nc2ccn([C@@H]3O[C@H](CO)[C@@H](O)C3(F)F)c(=O)n2)nc1")
"class B"
>>> qualitative_label("Cc1ccc(C(=O)Nc2ccn([C@@H]3O[C@H](CO)[C@@H](O)C3(F)F)c(=O)n2)cn1")
"class A"
>>> qualitative_label("O=C(Nc1ccn([C@@H]2O[C@H](CO)[C@@H](O)C2(F)F)c(=O)n1)c1ccc(F)cn1")
"class B"
>>> qualitative_label("O=C(Nc1ccn([C@@H]2O[C@H](CO)[C@@H](O)C2(F)F)c(=O)n1)c1ccccn1")
"class A"
>>> qualitative_label("Cc1ccc(C(=O)Nc2ccn([C@@H]3O[C@H](CO)[C@@H](O)C3(F)F)c(=O)n2)nc1")
"class B"
>>> qualitative_label("COc1ccc(C(=O)Nc2ccn([C@@H]3O[C@H](CO)[C@@H](O)C3(F)F)c(=O)n2)cn1")
"class C"
>>> qualitative_label("O=C(Nc1ccn([C@@H]2O[C@H](CO)[C@@H](O)C2(F)F)c(=O)n1)c1cccnc1")
"class B"
>>> qualitative_label("Cc1cccnc1C(=O)Nc1ccn([C@@H]2O[C@H](CO)[C@@H](O)C2(F)F)c(=O)n1")
"class C"
>>> qualitative_label("COc1ccc(C(=O)Nc2ccn([C@@H]3O[C@H](CO)[C@@H](O)C3(F)F)c(=O)n2)nc1")
"class C"
>>> qualitative_label("O=C(Nc1ccn([C@@H]2O[C@H](CO)[C@@H](O)C2(F)F)c(=O)n1)c1ccc(C(F)(F)F)nc1")
"class B"
>>> qualitative_label("O=C(Nc1ccn([C@@H]2O[C@H](CO)[C@@H](O)C2(F)F)c(=O)n1)c1ccc(Cl)nc1")
"class C"
>>> qualitative_label("NC(=O)c1nc(F)c[nH]c1=O [Favipiravir, reference compound]")
"class A"

---

tested on: A/Hong Kong/8/68 (H3N2); assay: microbe, parasite or virus in culture; conditions: Influenza A virus, H3N2, MDCK, 72 h, read-out: viability of HK-infected cells in library screening
measurement kind: viability at 10 µM

>>> result("O=C(Nc1ccn([C@@H]2O[C@H](CO)[C@@H](O)C2(F)F)c(=O)n1)c1ccccn1")
"> 50%"
>>> result("O=C(Nc1ccn([C@@H]2O[C@H](CO)[C@@H](O)C2(F)F)c(=O)n1)c1ccccc1")
"10 to 20%"
>>> result("O=C(Nc1ccn([C@@H]2O[C@H](CO)[C@@H](O)C2(F)F)c(=O)n1)c1cccnc1")
"> 50%"
>>> result("Nc1ccn([C@@H]2O[C@H](CO)[C@@H](O)C2(F)F)c(=O)n1")
"> 50%"

---

system: A/Hong Kong/8/68 (H3N2); details: ratio of CC10 to EC90
measurement kind: SI90 HK

>>> result("O=C(Nc1ccn([C@@H]2O[C@H](CO)[C@@H](O)C2(F)F)c(=O)n1)c1ccc([N+](=O)[O-])cn1 [Compound 2i]")
15.7
>>> result("O=C(Nc1ccn([C@@H]2O[C@H](CO)[C@@H](O)C2(F)F)c(=O)n1)c1cccnc1 [Compound 3a]")
4.2
>>> result("CCC(CC)O[C@@H]1C=C(C(=O)O)C[C@H](N)[C@H]1NC(C)=O [Oseltamivir carboxylate, reference compound]")
"> 600.0"

---

test system: B/Lee/40; assay: CPE reduction antiviral assay in Lee-infected MDCK cells (MTT); assay type: cell-based, influenza B virus; conditions: ratio of CC10 to EC90
measurement kind: SI90 Lee

>>> result("CCC(CC)O[C@@H]1C=C(C(=O)O)C[C@H](N)[C@H]1NC(C)=O [Oseltamivir carboxylate, reference compound]")
"> 5.0"
>>> result("O=C(Nc1ccn([C@@H]2O[C@H](CO)[C@@H](O)C2(F)F)c(=O)n1)c1cccc(-c2ccccc2)n1")
"> 8.7"
>>> result("NC(=O)c1nc(F)c[nH]c1=O [Favipiravir, reference compound]")
"> 18.4"
>>> result("Nc1ccc(C(=O)Nc2ccn([C@@H]3O[C@H](CO)[C@@H](O)C3(F)F)c(=O)n2)nc1")
"> 18.8"
>>> result("COc1ccc(C(=O)Nc2ccn([C@@H]3O[C@H](CO)[C@@H](O)C3(F)F)c(=O)n2)nc1")
"> 3.1"
>>> result("O=C(Nc1ccn([C@@H]2O[C@H](CO)[C@@H](O)C2(F)F)c(=O)n1)c1ccc(F)cn1")
"> 11.7"

---

tested on: MDCK cells; settings: dog, 3 days
Quick reference for CC10 among some compounds
measurement kind: CC10

>>> result("O=C(Nc1ccn([C@@H]2O[C@H](CO)[C@@H](O)C2(F)F)c(=O)n1)c1ccc(-c2ccccc2)cn1 [Compound 2d]")
">300.0 µM"
>>> result("Cc1cccnc1C(=O)Nc1ccn([C@@H]2O[C@H](CO)[C@@H](O)C2(F)F)c(=O)n1 [Compound 2c]")
">300.0 µM"
>>> result("COc1ccc(C(=O)Nc2ccn([C@@H]3O[C@H](CO)[C@@H](O)C3(F)F)c(=O)n2)nc1 [Compound 2g]")
">300.0 µM"
>>> result("CCC(CC)O[C@@H]1C=C(C(=O)O)C[C@H](N)[C@H]1NC(C)=O [Oseltamivir carboxylate, reference compound]")
">300.0 µM"
>>> result("NC(=O)c1nc(F)c[nH]c1=O [Favipiravir, reference compound]")
">300.0 µM"

---

tested on: A/Puerto Rico/8/34 (H1N1); settings: ratio of CC10 to EC90
Quick reference for SI90 PR8 among some compounds
measurement kind: SI90 PR8

>>> result("Cc1cccnc1C(=O)Nc1ccn([C@@H]2O[C@H](CO)[C@@H](O)C2(F)F)c(=O)n1 [Compound 2c]")
"> 2.6"
>>> result("NC(=O)c1nc(F)c[nH]c1=O [Favipiravir, reference compound]")
"> 35.3"
>>> result("Nc1ccc(C(=O)Nc2ccn([C@@H]3O[C@H](CO)[C@@H](O)C3(F)F)c(=O)n2)nc1 [Compound 2h]")
"> 24.5"
>>> result("COc1ccc(C(=O)Nc2ccn([C@@H]3O[C@H](CO)[C@@H](O)C3(F)F)c(=O)n2)nc1 [Compound 2g]")
"> 4.4"
>>> result("O=C(Nc1ccn([C@@H]2O[C@H](CO)[C@@H](O)C2(F)F)c(=O)n1)c1cccc(-c2ccccc2)n1 [Compound 2e]")
"> 18.1"
>>> result("O=C(Nc1ccn([C@@H]2O[C@H](CO)[C@@H](O)C2(F)F)c(=O)n1)c1ccccc1 [Compound 1]")
"> 3.9"
